# reported GI50; entries follow
system: HL-60; experiment: NCI tumour cell line growth inhibition, 48 h
The source made the active and inactive calls. Cut-off read from the data, not from the text of the source: active = GI50 up to about 1.1 µM and inactive = higher.

{"columns": ["compound", "GI50"],
 "data": [
  ["C=C1C2CCC3(CCC4C5(C)CCCC4(C=[N+](CCO)C5)C3C2)C1O (centres undefined)", "> 100 µM (inactive)"],
  ["CC=C/C=C/[C@@H]1O[C@](O)([C@H](CC)C(=O)NC/C=C/C=C(\\C)[C@@H](OC)[C@@H](C)[C@@H]2O[C@H](/C=C/C=C/C=C(\\C)C(=O)c3c(O)cc[nH]c3=O)[C@H](O)[C@@H]2O)[C@H](O)[C@H](O)C1(C)C", "93.5 µM (inactive)"],
  ["N=C(N)NS(=O)(=O)c1ccc(Nc2c3ccccc3nc3ccc(C(=O)Nc4ccc(S(N)(=O)=O)cc4)cc23)cc1", "> 100 µM (inactive)"],
  ["Cc1cc(C)c2c(c1)Nc1ccccc1P2c1ccccc1 (centres undefined)", "23.9 µM (inactive)"],
  ["COC(=O)C12C3C4(C(=O)OC)C1C1(C(=O)OC)C2C3(C(=O)OC)C41C(=O)N(C(C)C)C(C)C (centres undefined)", "> 100 µM (inactive)"],
  ["CN(C)c1ccc(C=c2c3ccccc3n3c2cc(-c2ccc(Cl)cc2)[n+]3C)cc1", "0.101 µM (active)"],
  ["C=C1CCCCCCCCC/C=C/1SCCCSC", "> 100 µM (inactive)"],
  ["CC(C)(C)c1cc(C(O)(C(=O)O)C(=O)O)cc(C(C)(C)C)c1O", "> 100 µM (inactive)"],
  ["O=C(c1ccc2ccccc2c1)N(Cc1cccnc1)C(=S)N(Cc1cccnc1)C(=O)c1ccc2ccccc2c1", "40.8 µM (inactive)"],
  ["Cc1cc(N2CCCC2)c([N+](=O)[O-])cc1[N+](=O)[O-]", "> 100 µM (inactive)"],
  ["CSc1ncc2c(n1)-c1ccccc1OC2NC(C)(C)C (centres undefined)", "> 100 µM (inactive)"],
  ["O=C1C(Cl)C(c2cc3cc(Br)ccc3nc2Cl)N1c1ccc(F)c(Cl)c1 (centres undefined)", "2.47 µM (inactive)"],
  ["Cn1cnc(N)c(N=O)c1=O", "> 10 µM (inactive)"],
  ["CC(C)(CN1CCCCC1)C(=O)/C=C/c1ccc(Cl)cc1", "2.15 µM (inactive)"],
  ["C[n+]1[se]c2ccccc2c1Cl", "7.89 µM (inactive)"],
  ["O=C(CNc1ccc2c(=S)c3ccccc3[nH]c2c1)Nc1ccccc1-c1ccccc1NC(=O)CNc1ccc2c(=S)c3ccccc3[nH]c2c1", "2.99 µM (inactive)"],
  ["O=C(c1ccc2ccccc2c1)C1(I)S(=O)(=O)OCCOS1(=O)=O", "> 100 µM (inactive)"],
  ["CC(=O)NNc1nc(C)c(C(=O)NNC(=O)C(=O)Nc2c([N+](=O)[O-])ccc(C)c2C)s1", "> 100 µM (inactive)"],
  ["C=CCn1c(-c2ccc(Cl)cc2Cl)cs/c1=N\\c1c(C)n(C)n(-c2ccccc2)c1=O", "6.11 µM (inactive)"]
]}

* * *

# reported GI50; entries follow
system: SK-MEL-28; experiment: NCI tumour cell line growth inhibition, 48 h
Calls of active or inactive are those of the source. No stated cut-off is given here; in the data, active = GI50 up to about 1.1 µM and inactive = higher.

{"columns": ["compound", "GI50"],
 "data": [
  ["CC(=O)C1=C(C)N2C(=NC3=C(CCc4ccccc43)C2c2cccc(Br)c2)S1 (stereo not given)", "> 100 µM (inactive)"],
  ["COc1ccccc1C1Nn2c(nc3ccccc3c2=O)N1c1ccc(C)cc1 (stereo not given)", "5.94 µM (inactive)"],
  ["O=C(/C=C/c1ccc(O)cc1)NCCc1ccc(O)cc1", "> 12.5 µM (inactive)"],
  ["C=CC1(c2ccccc2Cl)N/C(=C/OCC)CO1 (stereo not given)", "> 100 µM (inactive)"],
  ["O=c1c2c3c(sc2nc2n1N=C(c1ccc(Br)cc1)CS2)CCCC3", "> 100 µM (inactive)"],
  ["COc1cc([C@@H]2c3cc4c(cc3[C@@H](NC(=O)c3ccc(N)cc3)C3COC(=O)[C@@H]32)OCO4)cc(OC)c1O (stereo not given in full)", "5.15 µM (inactive)"],
  ["N=C1/C(=C/c2ccccc2)C(=O)N=C2SC=NN12", "> 100 µM (inactive)"],
  ["O=C(c1ccccc1)c1ccc(N2C(=O)/C(=C/Cc3ccco3)N=C2c2ccccc2)c(N2C(=O)/C(=C/Cc3ccco3)N=C2c2ccccc2)c1", "> 100 µM (inactive)"],
  ["CC[N+]1(C)CCC(O)(/C=C/c2ccc(Cl)c(Cl)c2)C(C(=O)/C=C/c2ccc(Cl)c(Cl)c2)C1 (stereo not given)", "2.15 µM (inactive)"],
  ["COC(=O)C(Cc1ccc(N(C)C)cc1)(NC(=O)c1ccccc1)P(=O)(OC)OC (stereo not given)", "> 100 µM (inactive)"],
  ["O=C(CC(=O)n1nc(-c2ccccc2)c(/N=N/c2ccc(Cl)cc2)c1-c1ccccc1)Nc1cccc(Cl)c1", "> 100 µM (inactive)"],
  ["CC(C)C(Cl)CCC(C)(Cl)C(=O)CBr (stereo not given)", "5.01 µM (inactive)"],
  ["CCCCCCSc1nc(N)nc2nc[nH]c12", "59.3 µM (inactive)"],
  ["O=C(CC/C=C(/CS(=O)(=O)c1ccccc1)S(=O)(=O)c1ccccc1)c1ccccc1", "> 100 µM (inactive)"],
  ["CCOc1ncnc2ccc(Cl)c(I)c12", "> 100 µM (inactive)"],
  ["CSCCC(NC(=O)OC(C)(C)C)C(=O)NCCNc1ccc(NCCNC(=O)C(CCSC)NC(=O)OC(C)(C)C)c2c1C(=O)c1ccccc1C2=O (stereo not given)", "1.85 µM (inactive)"],
  ["O=[N+]([O-])c1cc(-c2nnc(C34CC5CC(CC(C5)C3)C4)o2)cc([N+](=O)[O-])c1", "86.1 µM (inactive)"],
  ["O=C1Nc2ccccc2C1(O)C/C(=N/O)c1ccc2ccccc2c1 (stereo not given)", "> 100 µM (inactive)"],
  ["N#CC(C(=O)/C(=N/N)C(C#N)c1ccc(Cl)cc1)c1ccc(Cl)cc1 (stereo not given)", "> 10 µM (inactive)"],
  ["O=S1(=O)CC#CC[C@@H](CO)[C@@H](CO)CC#CC1", "72.3 µM (inactive)"],
  ["CN(C)CCCNC(=O)CCNC(=O)c1cc(NC(=O)c2cc(NC(=O)c3cc(NC(=O)CCCNC(=O)c4cc(NC(=O)c5cc(NC(=O)c6nccn6C)cn5C)cn4C)cn3C)cn2C)cn1C", "> 100 µM (inactive)"],
  ["COC(=O)C(Cc1ccccc1)/N=C/c1c(O)c(O)c(C(C)C)c2cc(C)c(-c3c(C)cc4c(C(C)C)c(O)c(O)c(/C=N/C(Cc5ccccc5)C(=O)OC)c4c3O)c(O)c12 (stereo not given)", "28.8 µM (inactive)"],
  ["O=C(c1ccc2ccccc2c1)C1(I)S(=O)(=O)OCCOS1(=O)=O", "> 100 µM (inactive)"],
  ["S=C(NCCc1ccccn1)c1nc[nH]c1C(=S)NCCc1ccccn1", "52.4 µM (inactive)"],
  ["CN(C)c1nc(N(C)C)nc(N(C)C23CC4CC(CC(C4)C2)C3)n1", "46.5 µM (inactive)"],
  ["NCCCCC(=O)c1cccnc1", "> 100 µM (inactive)"],
  ["C/C=C(/COC(C)=O)C(=O)OC1C=C(C=O)C(C)(C)C=C1C (stereo not given)", "> 100 µM (inactive)"],
  ["Cc1cc(C)c2c(c1)Nc1ccccc1P2c1ccccc1 (stereo not given)", "44.1 µM (inactive)"],
  ["COc1ccc2nc3ccc(OC)cc3c(SCCO)c2c1", "55.8 µM (inactive)"],
  ["COC1OC(COCc2ccc(Cl)cc2)C(OCc2ccc(Cl)cc2)C1O (stereo not given)", "16.9 µM (inactive)"],
  ["OCCCOC(c1ccccc1)(c1ccccc1)c1ccccc1", "> 100 µM (inactive)"],
  ["CC(=O)OCC1OC(Oc2cc(C)c(O)cc2C/C=C(\\C)CC/C=C(\\C)CC(=O)CC(C)C)C(O)C(OC(C)=O)C1OC(C)=O (stereo not given)", "27.4 µM (inactive)"],
  ["CC(O)CN1C(=O)NC(Cc2ccccc2)C1=O (stereo not given)", "> 100 µM (inactive)"],
  ["O=C1CCSC(=S)N1c1ccc(Br)c(Cl)c1", "17.7 µM (inactive)"],
  ["COC(=O)C12C3C4(C(=O)OC)C1C1(C(=O)OC)C2C3(C(=O)OC)C41C(=O)N(C(C)C)C(C)C (stereo not given)", "> 100 µM (inactive)"],
  ["CCn1c(=N)sc2nc3ccccc3n2c1=O", "> 100 µM (inactive)"],
  ["O=C(NNC(=S)Nc1ccc(Br)cc1)c1cc(-c2ccccc2)nc2ccccc12", "21.1 µM (inactive)"],
  ["CC/C(Cl)=N\\OC(=O)Nc1ccc(F)cc1F", "17.7 µM (inactive)"],
  ["CC(C)=CC(=O)C1c2cccc(O)c2C(=O)c2c(O)cc(C)cc21 (stereo not given)", "3.05 µM (inactive)"],
  ["O=C(CC(=O)C(F)(F)F)c1csc2ccccc12", "14.1 µM (inactive)"]
]}

Value source: ChEMBL document CHEMBL1201862
